Hello, the source for this data is PubChem BioAssay, in case you need it.

# PROTOCOL NOTES: basal RPMI8226 viability, no added stimulus, profiling panel, cell-based, calcein-AM fluorescence, 48 h, PK04 Diversity Set (AID 1166);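 note: cells grown under basal conditions without added stimulus; test concentration not given here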
# MEASUREMENT CONDITIONS: RPMI8226 myeloma viability, higher = more signal
Label Fulfilled when z-score < -0.9; otherwise Not fulfilled.

Before answering, review these 4 worked examples.
- COMPOUND: "COCCOC(=O)N1C(=O)[C@@]2(c3cc(C#CC4=CCCCC4)ccc31)[C@H](c1ccc(O)cc1)N1[C@H](c3ccccc3)[C@H](c3ccccc3)OC(=O)[C@H]1[C@@H]2C(N)=O"
  GROUP: "Fulfilled"
- COMPOUND: "C=CCNC(=O)[C@H]1[C@@H]2C(=O)O[C@@H](c3ccccc3)[C@@H](c3ccccc3)N2[C@@H](c2ccccc2OCCO)[C@]12C(=O)Nc1ccc(C#CC3=CCCCC3)cc12"
  GROUP: "Fulfilled"
- COMPOUND: "O=C1c2ccccc2[C@@]2(Cc3ccccc3N(CC(F)(F)F)C2=O)[C@H](c2ccc(CO)cc2)N1Cc1ccccc1Cl"
  GROUP: "Fulfilled"
- COMPOUND: "COCCOC(=O)N1C(=O)[C@@]2(c3cc(C#CC4(O)CCCCCC4)ccc31)[C@H](c1ccc(O)cc1)N1[C@H](c3ccccc3)[C@H](c3ccccc3)OC(=O)[C@H]1[C@@H]2C(=O)Nc1nc2ccccc2s1"
  GROUP: "Fulfilled"

Next compound, please.
Inquiry: # strict comparison: is reported z-score < -0.9? input = O=C1C2C=CC(C(O)c3ccc(F)cc3)N(Nc3ccccc3F)C2C(=O)N1c1ccccc1 (stereo unspecified)
Reply text: Not fulfilled

###

Catalogue of compounds with associated z-score
# PROTOCOL NOTES: basal HepG2 mitochondrial membrane potential changes, profiling panel, cell-based, JC-1 fluorescence, 24 h, 100 nL compound (AID 1167); note: test concentration not given here
# MEASUREMENT CONDITIONS: higher = more signal

Field: example entries. Status: answers known.
- COMPOUND: "O=C1NCC(=O)N2[C@@H]1C[C@@H](C(=O)O)[C@H]2c1cccc(OCCO)c1"
  z-score: 2.32
- COMPOUND: "CN1C(=O)C2C=CC(C(O)c3ccc(I)cc3)N(N3CCCCC3)C2C1=O (stereo not given)"
  z-score: -0.62
- COMPOUND: "CCCCCCC#C[Si](O[C@H](c1ccccc1)c1cn([C@H](CO)Cc2ccccc2)nn1)(C(C)C)C(C)C"
  z-score: 0.338

Inquiry: In one line, give reported z-score of the entry COC(=O)[C@@]1(Cc2ccc(F)cc2)[C@H]2c3cc(C(=O)N4CCCC4)n(Cc4cc(C)n(C)n4)c3C[C@H]2CN1C(=O)c1ccccc1 .
Reply text: 2.16

Inquiry: In one line, give reported z-score of the entry OC([C@@H]1CC(c2ccccc2)=NO1)[C@H]1CC(c2ccccc2)=NO1 (stereo not given in full) .
Reply text: 1.05

###

# TESTED SYSTEM: NADPH oxidase 5 (Homo sapiens)
# PROTOCOL NOTES: NOX5-dependent H2O2 signal modulators, primary screen, NOX inhibitor project, cell-based, HEK293-NOX5, Amplex Red fluorescence (AID 1161)
# MEASUREMENT CONDITIONS: HEK293-NOX5, ionomycin, 45 min, higher = more signal
RESULT TYPE: z-score
# print the numeric value only

Inquiry: In one line, give reported z-score of the entry COCCOC(=O)N1C(=O)[C@@]2(c3cc(C#Cc4ccc(OC)cc4)ccc31)[C@H](C(N)=O)[C@H]1C(=O)O[C@H](c3ccccc3)[C@H](c3ccccc3)N1[C@@H]2c1ccccc1OCCO .
Reply text: 1.44

Inquiry: In one line, give reported z-score of the entry CCOC(=O)C[C@H]1[C@H](OC(=O)c2cc3ccccc3oc2=O)[C@@H](NC(=O)C2CCCCC2)c2cc(OCCCO)ccc2N1C(=O)c1ccccc1 .
Reply text: 0.305

Inquiry: In one line, give reported z-score of the entry COC(=O)[C@@]1(Cc2ccc(F)cc2)[C@H]2c3cc(C(=O)N4CCCC4)n(Cc4cc(C)n(C)n4)c3C[C@H]2CN1C(=O)c1ccccc1 .
Reply text: -0.196

Inquiry: In one line, give reported z-score of the entry [N-]=[N+]=NCc1ccccc1C[C@]1(C(=O)NCC(O)CO)N=C(c2ccc(OCCCO)cc2)O[C@H]1c1ccccc1 (stereo partly specified) .
Reply text: -0.632

Inquiry: In one line, give reported z-score of the entry CC(C)(C)OC(=O)CC[C@@]1(C(=O)NCCN2CCOCC2)N=C(c2ccc(OCCCO)cc2)O[C@@H]1c1ccccc1N=[N+]=[N-] .
Reply text: -1.73

Inquiry: In one line, give reported z-score of the entry COC(=O)C(CC#Cc1ccc2c(c1)[C@]1(C(=O)N2)[C@H](C(=O)O)[C@H]2C(=O)O[C@H](c3ccccc3)[C@H](c3ccccc3)N2[C@@H]1c1ccc(O)cc1)C(=O)OC .
Reply text: 0.921
